Cited source: paper PMC6009976

# Measurement Protocol: in vivo
# Assay Setup: both, Kunming, mouse, in vivo, ip
LD50 listing for selected compounds.
Number in mg/kg, nothing else.

{"Molecular String": "CC[C@@]1(c2cccc(OC(=O)Nc3ccccc3)c2)CCCCN(C)C1", "LD50, mg/kg": 45}

--- query ---
Ask: Field request: LD50 | item: CC[C@@]1(c2cccc(OC(=O)N(C)C)c2)CCCCN(C)C1
Result: 1.4

* * *

# Test Target: BChE (mice serum) (Mus musculus, UniProt Q03311)
# Construct: BChE (1:19 v/v serum in 0.1 M PB, pH 7.4) as the enzyme source
# Sequence (Q03311 30-603): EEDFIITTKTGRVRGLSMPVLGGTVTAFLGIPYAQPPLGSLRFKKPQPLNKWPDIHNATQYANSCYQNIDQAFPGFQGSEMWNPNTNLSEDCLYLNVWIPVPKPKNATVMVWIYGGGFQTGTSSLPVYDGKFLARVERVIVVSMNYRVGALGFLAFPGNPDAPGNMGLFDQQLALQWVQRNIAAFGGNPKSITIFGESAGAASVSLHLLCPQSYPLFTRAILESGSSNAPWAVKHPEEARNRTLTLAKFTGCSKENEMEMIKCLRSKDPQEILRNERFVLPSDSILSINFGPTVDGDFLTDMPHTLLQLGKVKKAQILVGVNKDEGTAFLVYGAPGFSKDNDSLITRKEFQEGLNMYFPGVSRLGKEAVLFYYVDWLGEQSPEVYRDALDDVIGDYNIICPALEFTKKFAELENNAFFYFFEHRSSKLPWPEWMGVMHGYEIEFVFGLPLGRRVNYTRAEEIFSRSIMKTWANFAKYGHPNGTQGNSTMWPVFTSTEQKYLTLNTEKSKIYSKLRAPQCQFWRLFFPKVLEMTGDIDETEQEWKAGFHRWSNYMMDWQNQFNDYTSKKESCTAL
# Measurement Protocol: In vitro BChE inhibition assay (Ellman's method)
# Assay Setup: read-out: IC50 ± SEM BChE
Measurement Type: pIC50
Reminder that pIC50 is minus the log10 of a molar concentration.

{"Molecular String": "CC[C@@]1(c2cccc(OC(=O)N(C)C)c2)CCCCN(C)C1", "pIC50": 8.50}

Ask: Field request: pIC50 | item: CC[C@@]1(c2cccc(OC(=O)Nc3ccccc3)c2)CCCCN(C)C1
Result: 7.17

* * *

List of Kd tested on rHuAChE immobilized on EDA CIM disk (Homo sapiens, UniProt P22303).
Sequence (P22303 32-614): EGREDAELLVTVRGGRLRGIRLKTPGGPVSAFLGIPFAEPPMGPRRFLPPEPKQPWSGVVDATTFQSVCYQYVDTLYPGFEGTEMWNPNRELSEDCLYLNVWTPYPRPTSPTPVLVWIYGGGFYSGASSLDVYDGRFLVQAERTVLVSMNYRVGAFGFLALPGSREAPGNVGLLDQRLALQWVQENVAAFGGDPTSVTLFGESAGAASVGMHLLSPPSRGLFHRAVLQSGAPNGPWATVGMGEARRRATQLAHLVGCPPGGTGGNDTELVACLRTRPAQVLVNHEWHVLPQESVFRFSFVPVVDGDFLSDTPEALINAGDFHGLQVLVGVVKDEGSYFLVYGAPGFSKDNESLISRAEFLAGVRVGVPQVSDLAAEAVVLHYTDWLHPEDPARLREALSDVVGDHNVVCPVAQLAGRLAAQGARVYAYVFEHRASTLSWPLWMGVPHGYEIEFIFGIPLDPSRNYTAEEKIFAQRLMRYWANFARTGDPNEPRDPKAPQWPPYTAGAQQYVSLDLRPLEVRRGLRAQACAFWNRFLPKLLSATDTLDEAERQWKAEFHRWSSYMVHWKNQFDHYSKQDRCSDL
Number in nM, nothing else.

{"Molecular String": "CC[C@@]1(c2cccc(OC(=O)N(C)C)c2)CCCCN(C)C1", "Kd (nM)": 30.2}

--- query ---
Ask: // fetch rHuAChE immobilized on EDA CIM disk (Homo sapiens, UniProt P22303) Kd for CC[C@@]1(c2cccc(OC(=O)Nc3ccccc3)c2)CCCCN(C)C1
Result: 108

* * *

# Test Target: AChE (mice brain homogenate) (Mus musculus)
# Construct: a solution of AChE (1:9 w/v homogenate in 0.1 M phosphate buffer (PB), pH 7.4); from tissue; host or cells: mouse brain homogenate
# Sequence (P21836 32-614): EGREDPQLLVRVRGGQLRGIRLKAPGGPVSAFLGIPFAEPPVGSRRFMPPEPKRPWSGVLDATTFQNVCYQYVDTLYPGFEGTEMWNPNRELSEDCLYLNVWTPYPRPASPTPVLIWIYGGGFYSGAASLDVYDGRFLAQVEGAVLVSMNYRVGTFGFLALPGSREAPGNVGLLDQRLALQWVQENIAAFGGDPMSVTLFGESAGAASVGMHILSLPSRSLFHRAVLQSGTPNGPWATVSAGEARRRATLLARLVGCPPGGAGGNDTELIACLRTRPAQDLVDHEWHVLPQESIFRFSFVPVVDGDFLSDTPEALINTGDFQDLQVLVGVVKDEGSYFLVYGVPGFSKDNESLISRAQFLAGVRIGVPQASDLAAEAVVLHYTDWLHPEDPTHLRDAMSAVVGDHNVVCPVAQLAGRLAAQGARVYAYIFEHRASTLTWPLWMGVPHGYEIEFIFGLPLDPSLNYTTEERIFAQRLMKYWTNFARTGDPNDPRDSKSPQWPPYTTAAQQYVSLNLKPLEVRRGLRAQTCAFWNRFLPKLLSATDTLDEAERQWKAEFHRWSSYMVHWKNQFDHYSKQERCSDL
# Measurement Protocol: In vitro AChE inhibition assay (Ellman's method)
# Assay type: biochemical
pIC50 listing for selected compounds.
Reminder that pIC50 is minus the log10 of a molar concentration.

{"Compound": "CC[C@@]1(c2cccc(OC(=O)Nc3ccccc3)c2)CCCCN(C)C1 [Compound 43]", "pIC50": 7.50}

--- query ---
Ask: // fetch AChE (mice brain homogenate) (Mus musculus) pIC50 for CC[C@@]1(c2cccc(OC(=O)N(C)C)c2)CCCCN(C)C1 [Compound 42]
Result: 8.16
